Biological target: T1, CRBN, Q96SW2;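 note: pooled lentiviral library of zinc finger degron-EGFP fusions in mCherry-positive Jurkat cells, FACS-sorted after compound exposure, with degron abundance counted by next-generation sequencing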
T1 chain: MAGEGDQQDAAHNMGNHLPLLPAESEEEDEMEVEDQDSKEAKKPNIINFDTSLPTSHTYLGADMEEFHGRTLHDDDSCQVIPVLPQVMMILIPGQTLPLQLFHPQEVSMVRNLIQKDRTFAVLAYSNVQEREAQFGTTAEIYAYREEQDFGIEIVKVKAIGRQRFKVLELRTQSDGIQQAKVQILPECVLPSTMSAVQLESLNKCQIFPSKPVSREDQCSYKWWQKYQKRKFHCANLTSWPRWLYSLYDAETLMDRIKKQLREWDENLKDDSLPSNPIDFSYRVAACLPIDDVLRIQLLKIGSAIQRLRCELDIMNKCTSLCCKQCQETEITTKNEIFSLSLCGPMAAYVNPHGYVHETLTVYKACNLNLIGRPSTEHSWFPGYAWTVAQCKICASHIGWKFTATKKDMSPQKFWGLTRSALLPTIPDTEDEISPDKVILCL
Assay: log2 fold change of degron read counts, EGFP-low vs EGFP+ sorted cells (limma voom), compound-induced degradation; higher = more compound-induced degradation of the degron-EGFP fusion; degrons are variants of IKZF1/3 zinc finger 2; compound dose not given here
Details: Jurkat; 18 h; compound: compound 19 (5-tert-butyl-thalidomide)
Whole data set: some 8,300 sequences, median “log2 fold change of degron read counts, EGFP-low vs EGFP+ sorted cells (limma voom), compound-induced degradation” near -1.1, cut for the highest 2% near 3.2. What follows is part of a selection rich in the highest values, with near analogues and random picks from the rest.
Examples of sequences with documented log2 fold change of degron read counts follow.

sequenceData	log2 fold change of degron read counts
FRCEVCGAGFTQKGNLLRHIKL [46F_47R_49E_50V_52G_53A_54G_55F_67L_, Q9UKT9]	2.66
FCCEVCGAGFTQKGNLLRHIKL [46F_47C_49E_50V_52G_53A_54G_55F_67L_, Q9UKT9]	3.35
FLCEVCGAGFTQKGNLLRHIKL [46F_47L_49E_50V_52G_53A_54G_55F_67L_, Q9UKT9]	2.28

Here is the next item to consider.
Query block: For FGCEVCGAGFTQKGNLLRHIKL [46F_47G_49E_50V_52G_53A_54G_55F_67L_, Q9UKT9] , what is its reported log2 fold change of degron read counts?
Result block: 1.93
